A short record of IC50 observed with Plasminogen (Homo sapiens) follows.
Sequence (P00747 97-580 limits assumed): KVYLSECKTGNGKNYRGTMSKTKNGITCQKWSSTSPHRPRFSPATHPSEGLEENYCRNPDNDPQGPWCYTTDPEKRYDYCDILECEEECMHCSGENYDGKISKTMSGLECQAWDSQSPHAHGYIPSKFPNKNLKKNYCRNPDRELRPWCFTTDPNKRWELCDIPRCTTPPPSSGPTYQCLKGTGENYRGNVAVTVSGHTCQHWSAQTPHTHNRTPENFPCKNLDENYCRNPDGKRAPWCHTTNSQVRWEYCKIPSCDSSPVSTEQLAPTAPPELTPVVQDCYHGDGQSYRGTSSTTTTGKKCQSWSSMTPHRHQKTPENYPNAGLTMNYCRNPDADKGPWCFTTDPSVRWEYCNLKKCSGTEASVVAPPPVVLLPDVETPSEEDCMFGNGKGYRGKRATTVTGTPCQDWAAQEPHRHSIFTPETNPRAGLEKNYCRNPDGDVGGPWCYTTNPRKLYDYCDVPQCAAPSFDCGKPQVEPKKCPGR
Sequence (P00747 581-810 limits assumed): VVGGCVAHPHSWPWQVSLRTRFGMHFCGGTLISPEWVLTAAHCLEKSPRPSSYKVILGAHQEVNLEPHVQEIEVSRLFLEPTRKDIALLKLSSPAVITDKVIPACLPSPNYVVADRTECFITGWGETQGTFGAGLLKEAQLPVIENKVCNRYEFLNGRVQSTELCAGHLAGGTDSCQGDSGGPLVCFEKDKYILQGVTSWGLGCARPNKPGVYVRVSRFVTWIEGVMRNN
measurementKind: IC50 (µM)

{"columns": ["compound", "measurementKind", "units", "numericValue"],
 "data": [
  ["CC1CCCC(C)N1CCCCCN1C(=O)C(c2cccc(CN)c2)Oc2ccccc21 (stereo not drawn)", "IC50", "µM", 25]
]}

A = CC1CCCC(C)N1CCCCCN1C(=O)C(c2cccc(C(=N)N)c2)Oc2ccccc21 (stereo not drawn)
B = CC1CCCC(C)N1CCCCCCN1C(=O)C(c2cccc(C(=N)N)c2)Oc2ccccc21 (stereo not drawn)
Q: Pick one: A or B . Which one has the lower reported IC50? # respond with the chosen item's label
Ans: A

* * *

- assayTarget: Prothrombin (Homo sapiens, UniProt P00734)
- experiment: Inhibition of thrombin at 100 uM
measurementKind: inhibition (%)

Some solved entries appear below for comparison.
{"columns": ["molecule", "assayTarget", "numericValue"],
 "data": [
  ["CC1CCCC(C)N1CCCCCN1C(=O)C(c2cccc(C(=N)NO)c2)Oc2ccccc21 (stereo not given)", "Prothrombin (Homo sapiens, UniProt P00734)", 19],
  ["CC1CCCC(C)N1CCCCCN1C(=O)C(c2cccc(C(=N)NN3CCOCC3)c2)Oc2ccccc21 (stereo not given)", "Prothrombin (Homo sapiens, UniProt P00734)", 15],
  ["CC1CCCC(C)N1CCCCCN1C(=O)C(c2ccc(Cl)c(Cl)c2)Oc2ccccc21 (stereo not given)", "Prothrombin (Homo sapiens, UniProt P00734)", 47],
  ["N=C(N)c1cccc(C2Oc3ccccc3N(CCCCCN)C2=O)c1 (stereo not given)", "Prothrombin (Homo sapiens, UniProt P00734)", 60],
  ["CC1CCCC(C)N1CCCCCN1C(=O)C(c2ccccc2)Oc2ccccc21 (stereo not given)", "Prothrombin (Homo sapiens, UniProt P00734)", 19],
  ["CC1CCCC(C)N1CCCCCN1C(=O)C(c2ccc(C(=N)S)cc2)Oc2ccccc21 (stereo not given)", "Prothrombin (Homo sapiens, UniProt P00734)", 32],
  ["CC1CCCC(C)N1CCCCCN1C(=O)C(c2ccc(Cl)cc2)Oc2ccccc21 (stereo not given)", "Prothrombin (Homo sapiens, UniProt P00734)", 38]
]}

a = Cc1ccc(C2Oc3ccccc3N(CCCCCN3C(C)CCCC3C)C2=O)cc1 (stereo not given)
b = C/N=C(/N)c1cccc(C2Oc3ccccc3N(CCCCCN3C(C)CCCC3C)C2=O)c1 (stereo not given)
c = CC1CCCC(C)N1CCCCCN1C(=O)C(c2ccc(C(=N)NO)cc2)Oc2ccccc21 (stereo not given)
Q: Sort (3 molecules) by inhibition: min first. Order the labels as requested and give them as your answer.
Ans: c, a, b
(c: 18%, a: 33%, b: 68%)

* * *

- assayTarget: Serine protease 1 (Homo sapiens, UniProt P07477)
- Sequence (P07477 whole entry): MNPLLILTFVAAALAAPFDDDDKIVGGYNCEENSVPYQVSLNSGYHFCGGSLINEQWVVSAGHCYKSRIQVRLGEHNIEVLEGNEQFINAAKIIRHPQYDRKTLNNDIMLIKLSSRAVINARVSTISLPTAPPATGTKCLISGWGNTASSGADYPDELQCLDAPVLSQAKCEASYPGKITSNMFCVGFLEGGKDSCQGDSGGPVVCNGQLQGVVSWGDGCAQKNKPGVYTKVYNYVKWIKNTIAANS
- experiment: In vitro inhibitory activity against trypsin at 100 uM
measurementKind: inhibition (%)

{"columns": ["compound", "assayTarget", "numericValue"],
 "data": [
  ["CC1CCCC(C)N1CCCCCN1C(=O)C(c2ccc(Cl)cc2)Oc2ccccc21 (stereo not drawn)", "Serine protease 1 (Homo sapiens, UniProt P07477)", 46],
  ["CC1CCCC(C)N1CCCCCN1C(=O)C(c2ccc(C(=N)NO)cc2)Oc2ccccc21 (stereo not drawn)", "Serine protease 1 (Homo sapiens, UniProt P07477)", 8],
  ["COc1ccc(C2Oc3ccccc3N(CCCCCN3C(C)CCCC3C)C2=O)cc1OC (stereo not drawn)", "Serine protease 1 (Homo sapiens, UniProt P07477)", 0],
  ["COc1cc(C2Oc3ccccc3N(CCCCCN3C(C)CCCC3C)C2=O)cc(OC)c1OC (stereo not drawn)", "Serine protease 1 (Homo sapiens, UniProt P07477)", 12]
]}

P = CC1CCCC(C)N1CCCCCN1C(=O)C(c2cccc(C(=N)NO)c2)Oc2ccccc21 (stereo not drawn)
Q = CC1CCCC(C)N1CCCCCN1C(=O)C(c2ccc(Cl)c(Cl)c2)Oc2ccccc21 (stereo not drawn)
R = CC1CCCC(C)N1CCCCCN1C(=O)C(c2cccc(C(=N)NN3CCOCC3)c2)Oc2ccccc21 (stereo not drawn)
S = COc1ccc(C2Oc3ccccc3N(CCCCCN3C(C)CCCC3C)C2=O)cc1 (stereo not drawn)
T = CC1CCCC(C)N1CCCCCN1C(=O)C(c2ccc(C(=N)S)cc2)Oc2ccccc21 (stereo not drawn)
Q: Hey, quick one: sort these by inhibition, low to high? Answer format: the labels, in the requested order.
Ans: S, T, Q, P, R
(S: 2.3%, T: 7.8%, Q: 14%, P: 21%, R: 58%)

* * *

- assayTarget: Coagulation factor X (Homo sapiens, UniProt P00742)
- Sequence (P00742 41-179 limits assumed): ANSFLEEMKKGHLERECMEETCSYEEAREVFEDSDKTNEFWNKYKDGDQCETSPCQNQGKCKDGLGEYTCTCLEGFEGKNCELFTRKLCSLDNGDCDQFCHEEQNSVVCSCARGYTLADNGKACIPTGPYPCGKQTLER
- Sequence (P00742 235-488 limits assumed): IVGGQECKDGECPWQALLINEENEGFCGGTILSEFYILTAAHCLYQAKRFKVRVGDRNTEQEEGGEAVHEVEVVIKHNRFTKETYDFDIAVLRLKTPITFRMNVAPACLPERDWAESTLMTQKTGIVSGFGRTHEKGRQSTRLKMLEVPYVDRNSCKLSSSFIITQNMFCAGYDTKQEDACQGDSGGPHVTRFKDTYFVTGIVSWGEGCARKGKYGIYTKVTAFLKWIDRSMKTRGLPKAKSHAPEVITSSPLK
- experiment: In vitro inhibition of coagulation factor Xa.
pIC50: −log10 of the molar value.
measurementKind: pIC50

Reference set (5 entries):
{"columns": ["compound", "assayTarget", "numericValue"],
 "data": [
  ["CC1CCCC(C)N1CCCCN1C(=O)C(c2cccc(C(=N)N)c2)Oc2ccccc21 (configuration not stated)", "Coagulation factor X (Homo sapiens, UniProt P00742)", 7.92],
  ["CC1CCCC(C)N1CCCCCN1C(=O)C(c2cccc(C(N)=NN3CCOCC3)c2)Oc2ccccc21 (configuration not stated)", "Coagulation factor X (Homo sapiens, UniProt P00742)", 5.82],
  ["CC1CCC(C)N1CCCCCN1C(=O)C(c2cccc(C(=N)N)c2)Oc2ccccc21 (configuration not stated)", "Coagulation factor X (Homo sapiens, UniProt P00742)", 7.32],
  ["CC1CCCC(C)N1CCCCCCN1C(=O)C(c2cccc(C(=N)N)c2)Oc2ccccc21 (configuration not stated)", "Coagulation factor X (Homo sapiens, UniProt P00742)", 7.17],
  ["COc1ccc(C2Oc3ccccc3N(CCCCCN3C(C)CCCC3C)C2=O)cc1 (configuration not stated)", "Coagulation factor X (Homo sapiens, UniProt P00742)", 5.31]
]}

P = CC1CCCC(C)N1CCCCCN1C(=O)C(c2ccc(Cl)c(Cl)c2)Oc2ccccc21 (configuration not stated)
Q = CC1CCCC(C)N1CCCCCN1C(=O)C(c2ccc(C(=N)N)cc2)Oc2ccccc21 (configuration not stated)
R = CC1CCCC(C)N1CCCCCN1C(=O)C(c2ccc(C(=N)NO)cc2)Oc2ccccc21 (configuration not stated)
S = CC(C)N(CCCCCN1C(=O)C(c2cccc(C(=N)N)c2)Oc2ccccc21)C(C)C (configuration not stated)
Q: Kindly order the items shown according to pIC50, from the highest value down. Reply: labels, ordered per the request.
Ans: S, Q, P, R
(S: 6.92, Q: 5.10, P: 4.59, R: 4.18)

* * *

- assayTarget: Serine protease 1 (Homo sapiens, UniProt P07477)
- experiment: In vitro inhibitory activity against trypsin at 100 uM
measurementKind: inhibition (%)

a = Cc1ccc(C2Oc3ccccc3N(CCCCCN3C(C)CCCC3C)C2=O)cc1 (centres undefined)
b = C/N=C(/N)c1cccc(C2Oc3ccccc3N(CCCCCN3C(C)CCCC3C)C2=O)c1 (centres undefined)
c = CC1CCCC(C)N1CCCCCN1C(=O)C(c2ccccc2)Oc2ccccc21 (centres undefined)
d = CC1CCCC(C)N1CCCCCN1C(=O)C(c2cccc(C(=N)S)c2)Oc2ccccc21 (centres undefined)
Q: Sort the listed entries by inhibition, smallest first. Answer format: the labels, in the requested order.
Ans: c, d, a, b

* * *

- assayTarget: Coagulation factor X (Homo sapiens, UniProt P00742)
- experiment: In vitro inhibition of coagulation factor Xa.
measurementKind: IC50 (µM)

I = CC1CCCC(C)N1CCCCCN1C(=O)C(c2ccc(Cl)cc2)Oc2ccccc21 (stereo not drawn)
II = N=C(N)c1cccc(C2Oc3ccccc3N(CCCCCN3CCOCC3)C2=O)c1 (stereo not drawn)
Q: Which value of IC50 is smaller, the one for I or the one for II ? Mark your answer with the label of the selected entry.
Ans: II

* * *

- assayTarget: UniProtKB P00742
- experiment: In vitro inhibition of coagulation factor Xa.
pIC50: −log10 of the molar value.
measurementKind: pIC50

Below are worked cases with known answers.
{"columns": ["molecule", "pIC50"],
 "data": [
  ["CNC(=N)c1cccc(C2Oc3ccccc3N(CCCCCN3C(C)CCCC3C)C2=O)c1 (stereo unspecified)", 5.55],
  ["CC1CCCC(C)N1CCCCCN1C(=O)C(c2cccc(C(=N)NO)c2)Oc2ccccc21 (stereo unspecified)", 5.25],
  ["CC1CCCC(C)N1CCCCCN1C(=O)C(c2ccc(C(=N)S)cc2)Oc2ccccc21 (stereo unspecified)", 4.47],
  ["Cc1ccc(C2Oc3ccccc3N(CCCCCN3C(C)CCCC3C)C2=O)cc1 (stereo unspecified)", 4.55]
]}

P = N=C(N)c1cccc(C2Oc3ccccc3N(CCCCCN)C2=O)c1 (stereo unspecified)
Q = CC1CCCC(C)N1CCCCCN1C(=O)C(c2cccc(C(=N)N)c2)Oc2ccccc21 (stereo unspecified)
Q: Between these two entries, P and Q , state which has the higher pIC50. State the label of the item chosen.
Ans: Q

These measurements were taken from ChEMBL document CHEMBL1133480.
